Protocol Notes: Mouse plasma and brain pharmacokinetics, IV administration
Type: in vivo
Assay Context: male, C57BL/6, mouse, plasma, intravenous, 5 mg/kg, 5 mg/kg IV; 3 hr; read-out: plasma concentration, individual (Group 1-3)
Metric Name: concentration at 3 h (ng/mL)
Write it as a number; the unit ng/mL goes unstated.

Noted for O=C(O)CC(F)(F)C(=O)N1N=C(c2c(-c3ccc(Cl)cc3)c3ccccc3[nH]c2=O)CC1c1ccc(Cl)cc1 (stereo not shown) : its concentration at 3 h reads 6.78

====

Target Of Assay: GluN1/GluN2D (Rattus norvegicus, UniProt P35439+Q62645)
Sequence (Q62645 28-1323, other chains not shown): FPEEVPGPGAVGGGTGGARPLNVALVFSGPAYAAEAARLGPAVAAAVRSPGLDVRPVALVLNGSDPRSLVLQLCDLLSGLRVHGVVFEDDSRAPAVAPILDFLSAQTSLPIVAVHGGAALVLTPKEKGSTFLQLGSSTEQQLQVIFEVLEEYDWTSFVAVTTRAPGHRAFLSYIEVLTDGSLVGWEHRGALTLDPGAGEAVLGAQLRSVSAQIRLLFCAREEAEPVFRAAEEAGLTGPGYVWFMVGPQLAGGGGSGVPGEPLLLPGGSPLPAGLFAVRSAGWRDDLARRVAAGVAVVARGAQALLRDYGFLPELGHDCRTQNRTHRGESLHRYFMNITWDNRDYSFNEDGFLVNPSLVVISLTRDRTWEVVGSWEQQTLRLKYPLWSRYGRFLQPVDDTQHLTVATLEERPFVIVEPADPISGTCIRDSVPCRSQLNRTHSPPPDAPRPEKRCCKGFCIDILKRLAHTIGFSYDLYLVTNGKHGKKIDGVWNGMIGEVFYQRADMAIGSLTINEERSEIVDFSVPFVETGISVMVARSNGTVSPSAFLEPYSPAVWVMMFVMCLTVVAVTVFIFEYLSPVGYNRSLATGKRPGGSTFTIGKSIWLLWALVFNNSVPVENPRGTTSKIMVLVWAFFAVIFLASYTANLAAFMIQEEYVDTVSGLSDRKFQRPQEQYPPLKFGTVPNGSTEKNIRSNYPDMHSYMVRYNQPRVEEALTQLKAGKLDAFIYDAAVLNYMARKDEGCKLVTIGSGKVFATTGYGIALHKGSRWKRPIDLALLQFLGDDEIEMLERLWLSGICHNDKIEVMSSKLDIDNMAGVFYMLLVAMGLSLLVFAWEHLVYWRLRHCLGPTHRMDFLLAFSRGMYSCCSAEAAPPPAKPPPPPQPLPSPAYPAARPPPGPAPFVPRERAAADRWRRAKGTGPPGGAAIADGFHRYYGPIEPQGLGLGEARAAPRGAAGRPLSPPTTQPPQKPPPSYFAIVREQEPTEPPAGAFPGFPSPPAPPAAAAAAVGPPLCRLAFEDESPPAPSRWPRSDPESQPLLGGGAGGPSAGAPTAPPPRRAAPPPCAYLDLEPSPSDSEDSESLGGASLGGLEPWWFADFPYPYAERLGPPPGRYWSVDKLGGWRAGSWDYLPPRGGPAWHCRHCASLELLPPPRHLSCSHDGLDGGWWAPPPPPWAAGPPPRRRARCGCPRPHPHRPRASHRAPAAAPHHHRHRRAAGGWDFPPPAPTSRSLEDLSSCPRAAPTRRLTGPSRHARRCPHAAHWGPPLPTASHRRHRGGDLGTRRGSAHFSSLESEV
Protocol Notes: Whole-cell voltage-clamp recordings, HEK cells, GluN1/GluN2D (agonist dependence)
Type: cell-based
Assay Context: first of 5 brief NMDA (500 μM)/glycine (250 μM) pulses at 1 s intervals; read-out: IC50 pulse 1 (95% CI)
Metric Name: IC50 (nM)
Quick reminder: number only, in nM, skip the unit.

Reported IC50 ( O=C(O)CC(F)(F)C(=O)N1N=C(c2c(-c3ccc(Cl)cc3)c3ccccc3[nH]c2=O)CC1c1ccc(Cl)cc1 (centres unmarked) [2i] ) = 750

Per the records, this compound ( Cc1ccc2[nH]c(=O)c(C3=NN(C(=O)CCC(=O)O)C(c4ccc(Br)cc4)C3)c(-c3ccccc3)c2c1 (centres unmarked) [compound 1, reference compound] ) has IC50 equal to 4900
